Recorded values, source patent US5039528A.

We begin with a simple list: items and their reported EAA antagonist potency vs KA.
- Test system: KA receptors
- assay-method-text: Chick retina assay: protection against excitotoxic action of KA
- Format: cell-based
- measurement-context: Table 1, normalized to kynurenic acid vs KA = 1
Respond with the number and no other words.

Completed entries (count: 3):
[
  {
    "compound": "O=c1[nH]c2cc([N+](=O)[O-])c([N+](=O)[O-])cc2[nH]c1=O",
    "target-of-assay": "KA receptors",
    "EAA antagonist potency vs KA": 20
  },
  {
    "compound": "N#Cc1cc2[nH]c(=O)c(=O)[nH]c2cc1[N+](=O)[O-]",
    "target-of-assay": "KA receptors",
    "EAA antagonist potency vs KA": 30
  },
  {
    "compound": "O=C(O)c1cc(O)c2ccc(Cl)cc2n1 [7-Cl-kynurenate, 7-chloro-kynurenic acid]",
    "target-of-assay": "KA receptors",
    "EAA antagonist potency vs KA": 4
  }
]

Now take the following compound into account.
IN: Suppose we examine the compound O=C(O)c1cc(=O)c2ccccc2[nH]1 ; what EAA antagonist potency vs KA value has been reported?
OUT: 1
